# targetOrTestSystem: DPP-IV (Homo sapiens, UniProt P27487)
# Construct: an extract of the human colon carcinoma cell line Caco-2 is used as the DPP IV source; endogenous in cells; Nonidet-P40 solubilised extract
# Sequence (P27487 whole entry): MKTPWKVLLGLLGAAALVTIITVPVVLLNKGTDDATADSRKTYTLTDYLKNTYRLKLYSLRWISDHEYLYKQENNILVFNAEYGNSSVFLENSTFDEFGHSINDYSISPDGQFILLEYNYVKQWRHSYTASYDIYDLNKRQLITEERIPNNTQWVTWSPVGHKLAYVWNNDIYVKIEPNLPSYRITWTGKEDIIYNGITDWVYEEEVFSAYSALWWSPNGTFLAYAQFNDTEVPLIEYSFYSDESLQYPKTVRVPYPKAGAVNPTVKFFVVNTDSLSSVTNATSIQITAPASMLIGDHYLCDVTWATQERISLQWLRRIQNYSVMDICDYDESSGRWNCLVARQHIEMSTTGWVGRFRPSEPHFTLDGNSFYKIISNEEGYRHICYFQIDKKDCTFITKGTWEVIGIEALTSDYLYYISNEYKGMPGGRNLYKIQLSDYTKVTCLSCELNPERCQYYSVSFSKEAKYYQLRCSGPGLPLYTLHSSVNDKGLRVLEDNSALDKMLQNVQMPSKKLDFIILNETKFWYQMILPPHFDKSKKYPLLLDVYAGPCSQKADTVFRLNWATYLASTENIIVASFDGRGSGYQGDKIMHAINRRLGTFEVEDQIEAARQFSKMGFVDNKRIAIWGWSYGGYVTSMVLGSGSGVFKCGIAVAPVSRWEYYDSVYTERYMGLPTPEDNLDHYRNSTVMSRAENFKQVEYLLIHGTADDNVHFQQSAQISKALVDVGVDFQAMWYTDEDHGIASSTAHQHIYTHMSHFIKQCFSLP
# test: DPP-IV assay with Caco-2 cell extract, AFC substrate, fluorescence
# measurementContext: extract of human colon carcinoma cell line Caco-2 as DPP IV source; AFC substrate 100 μM; 60 minutes, ambient temperature; read-out: DPP IV inhibition IC50
# Protocol: The differentiation of the cells in order to induce the DPP-IV expression was carried out in accordance with the description by Reiher et al. in an article entitled “Increased expression of intestinal cell line Caco-2”, which appeared in Proc. Natl. Acad. Sci. Vol. 90, pp. 5757–5761 (1993). The cell extract was obtained from cells solubilised in a buffer (10 mM Tris HCl, 0.15 M NaCl, 0.04 t.i.u. aprotinin, 0.5% Nonidet-P40, pH 8.0) by centrifugation at 35,000 g for 30 minutes at 4° C. […]
observable: pIC50
The value called pIC50 is obtained by taking minus log10 of the concentration in mol/L.

Please review the entries below; each comes with its answer.
molecule="CC#CCn1c(N2CCC[C@@H](N)C2)nc2c1c(=O)n(Cc1nc3ccccc3c(C)[n+]1[O-])c(=O)n2C [Example 1]" observable=pIC50 observedvalue=8.70
molecule="CC#CCn1c(N2CCC[C@@H](N)C2)nc2c1c(=O)n(Cc1c3ccccc3c3ccccc3[n+]1[O-])c(=O)n2C [1(3)]" observable=pIC50 observedvalue=8.22
molecule="CC#CCn1c(N2CCC[C@@H](N)C2)nc2c1c(=O)n(Cc1c3ccccc3cc(C)[n+]1[O-])c(=O)n2C [1(2)]" observable=pIC50 observedvalue=8.40

Dear colleague, I am looking for the recorded pIC50 of the following molecule: CC#CCn1c(N2CCC[C@@H](N)C2)nc2c1c(=O)n(Cc1nc3ccccc3c[n+]1[O-])c(=O)n2C [1(4)]
8.70

Where do the numbers come from? From patent US7183280B2.
